assayTarget: Phosphate regulon sensor protein PhoR (Escherichia coli (strain K12), UniProt P08400)
Sequence (P08400 whole entry, the tested form may be a part): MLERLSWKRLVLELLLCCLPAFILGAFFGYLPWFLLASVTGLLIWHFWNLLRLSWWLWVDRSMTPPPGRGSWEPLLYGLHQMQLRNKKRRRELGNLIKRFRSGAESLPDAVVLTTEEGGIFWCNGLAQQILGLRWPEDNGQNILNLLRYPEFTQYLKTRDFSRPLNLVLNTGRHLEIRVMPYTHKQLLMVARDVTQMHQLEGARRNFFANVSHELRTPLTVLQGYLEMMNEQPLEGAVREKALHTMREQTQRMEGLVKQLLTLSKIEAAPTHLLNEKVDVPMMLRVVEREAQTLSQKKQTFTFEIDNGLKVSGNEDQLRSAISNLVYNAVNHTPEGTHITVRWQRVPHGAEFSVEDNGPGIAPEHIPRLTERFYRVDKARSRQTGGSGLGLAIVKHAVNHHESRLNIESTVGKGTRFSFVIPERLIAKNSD
assayNotes: Inhibition of Escherichia coli DHp-catalytic domain PhoR autophosphorylation expressed in Escherichia coli RIL in presence of gamma-32P-ATP by SDS-PAGE analysis
quantityMeasured: pIC50
Remember the convention: pIC50 equals -log10 of concentration in molar.

For the record CCC(c1ccc(O)cc1)C(CC)c1ccc(F)cc1 (stereo unspecified) , what value of pIC50 is listed for Phosphate regulon sensor protein PhoR (Escherichia coli (strain K12), UniProt P08400)?
4.80

====

assayTarget: Sensor protein kinase WalK family protein (Streptococcus pneumoniae PCS8203, UniProt A0A0H2UQD0)
Sequence (A0A0H2UQD0 whole entry): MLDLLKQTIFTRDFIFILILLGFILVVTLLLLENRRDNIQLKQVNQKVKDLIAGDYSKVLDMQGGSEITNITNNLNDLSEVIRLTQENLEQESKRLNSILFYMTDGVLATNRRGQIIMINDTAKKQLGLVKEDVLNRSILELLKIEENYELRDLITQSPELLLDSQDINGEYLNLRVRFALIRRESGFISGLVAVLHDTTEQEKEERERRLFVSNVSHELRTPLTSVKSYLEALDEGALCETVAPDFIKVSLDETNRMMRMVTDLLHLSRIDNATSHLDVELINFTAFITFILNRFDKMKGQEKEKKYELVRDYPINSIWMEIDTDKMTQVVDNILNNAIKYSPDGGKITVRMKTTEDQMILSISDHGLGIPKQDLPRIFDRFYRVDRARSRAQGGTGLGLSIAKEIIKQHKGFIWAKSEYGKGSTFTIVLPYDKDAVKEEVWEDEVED
quantityMeasured: IC50 (µM)
Quick reminder: number only, in µM, skip the unit.

O=c1cc(-c2ccc(O)c(O)c2)oc2cc(O)cc(O)c12: 216

Then this molecule:
Entry Nc1nc2ccc(Oc3ccc4nc(N)sc4c3)cc2s1 has what IC50?
75

====

assayTarget: Cell cycle histidine kinase CckA (Caulobacter vibrioides, UniProt Q9X688)
assayNotes: Competitive inhibition of Caulobacter vibrioides full length wild type cell cycle histidine kinase CckA deltaTM Escherichia coli BL21-AI in presence of varying levels of ATP measured every 60 secs for 2 hrs by Lineweaver-Burk plot analysis
Sequence (Q9X688 whole entry, the tested form may be a part): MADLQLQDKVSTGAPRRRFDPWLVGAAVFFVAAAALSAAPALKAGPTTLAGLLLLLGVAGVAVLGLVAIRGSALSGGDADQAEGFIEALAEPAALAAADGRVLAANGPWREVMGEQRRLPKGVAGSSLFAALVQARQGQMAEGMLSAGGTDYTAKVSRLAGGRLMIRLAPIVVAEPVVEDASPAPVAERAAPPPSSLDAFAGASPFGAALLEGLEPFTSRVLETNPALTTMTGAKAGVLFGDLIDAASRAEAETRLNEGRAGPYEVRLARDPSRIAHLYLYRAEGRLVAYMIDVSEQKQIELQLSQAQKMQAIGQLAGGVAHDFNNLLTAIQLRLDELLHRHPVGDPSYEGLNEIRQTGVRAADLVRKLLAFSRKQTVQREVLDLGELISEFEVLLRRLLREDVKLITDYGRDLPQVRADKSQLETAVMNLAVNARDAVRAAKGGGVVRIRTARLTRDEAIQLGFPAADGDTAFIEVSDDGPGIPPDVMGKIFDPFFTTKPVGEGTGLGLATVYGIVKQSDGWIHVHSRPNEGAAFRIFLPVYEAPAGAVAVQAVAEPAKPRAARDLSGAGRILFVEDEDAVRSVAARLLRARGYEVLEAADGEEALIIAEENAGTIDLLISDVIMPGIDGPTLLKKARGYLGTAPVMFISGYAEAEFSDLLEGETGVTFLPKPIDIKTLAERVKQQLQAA
quantityMeasured: Ki (µM)
Hi! Could you send only the number? It should be in µM, unit omitted.

Fill in: Ki of COc1ccc(-c2c(-c3cc(Cl)c(O)cc3O)n[nH]c2C)cc1 is ___
3.8

====

assayTarget: Chemotaxis protein CheA (Escherichia coli (strain K12))
Sequence (P07363 whole entry): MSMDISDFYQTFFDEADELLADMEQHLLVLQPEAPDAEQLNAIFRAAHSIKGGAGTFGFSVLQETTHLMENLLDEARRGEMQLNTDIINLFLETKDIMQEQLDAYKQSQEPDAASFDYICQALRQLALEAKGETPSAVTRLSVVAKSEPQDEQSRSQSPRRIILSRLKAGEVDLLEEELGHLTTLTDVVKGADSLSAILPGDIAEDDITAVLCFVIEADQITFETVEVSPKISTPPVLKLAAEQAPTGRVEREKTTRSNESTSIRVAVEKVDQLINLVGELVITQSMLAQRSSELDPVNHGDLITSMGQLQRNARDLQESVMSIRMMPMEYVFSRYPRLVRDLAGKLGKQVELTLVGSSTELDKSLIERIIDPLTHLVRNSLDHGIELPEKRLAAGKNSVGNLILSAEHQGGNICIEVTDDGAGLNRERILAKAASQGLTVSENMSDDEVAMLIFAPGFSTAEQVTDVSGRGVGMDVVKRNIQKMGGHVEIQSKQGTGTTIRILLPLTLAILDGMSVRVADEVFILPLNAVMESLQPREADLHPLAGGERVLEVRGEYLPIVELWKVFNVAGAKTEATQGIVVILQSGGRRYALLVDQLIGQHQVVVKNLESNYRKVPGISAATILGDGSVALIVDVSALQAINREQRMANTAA
assayNotes: Inhibition of Escherichia coli CheA preincubated for 30 mins followed by [gamma-33P]ATP addition after 30 mins by SDS-PAGE method
quantityMeasured: IC50 (µM)
// units = µM; emit number, no label

Fill in the blank: the reported IC50 of O=c1cc(-c2ccc(O)c(O)c2)oc2cc(O)cc(O)c12 is ____.
111

====

assayNotes: Hemolytic activity against sheep RBC at 0.5 mM after 30 mins relative to control
Assay type: ADME, cell-based, Ovis aries, Erythrocyte
measurementSetup: sheep red blood cells (erythrocytes), read-out: Activity
hemolysis at 0.5 h, 500 µM vs 1%: at or above is yes (1), below is no (0).

Completed entries (count: 6):
CCc1cc(-c2n[nH]c(C)c2-c2ccc(OC)cc2)c(O)cc1O: yes (1)
COc1ccc(-c2c(-c3cc(Cl)c(O)cc3O)n[nH]c2C)cc1: yes (1)
Oc1cc(O)c(-c2n[nH]cc2-c2ccccc2)cc1Cl: no (0)
COc1ccc(-c2c(-c3ccc(O)cc3O)n[nH]c2C)cc1: yes (1)
COc1ccc(-c2c[nH]nc2-c2cc(Cl)c(O)cc2O)cc1: no (0)
C[C@@H]1C[C@H]2O[C@@H]2/C=C\C=C\C(=O)Cc2c(Cl)c(O)cc(O)c2C(=O)O1 [RADICICOL]: no (0)

# input for lookup
Please tell me: is the molecule CCc1cc(-c2n[nH]c(C)c2-c2ccc3c(c2)OCCO3)c(O)cc1O at or over 1% in terms of hemolysis at 0.5 h, 500 µM?
yes (1)

====

// values below are reported IC50
assayTarget: Cell cycle histidine kinase CckA (Caulobacter vibrioides, UniProt Q9X688)
assayNotes: Inhibition of recombinant Caulobacter vibrioides cell cycle histidine kinase CckA deltaTM mutant DHp domain (70 to 691 residues) expressed in Escherichia coli in presence of varying levels of ATP measured every 60 secs for 2 hrs by PK/LDH enzyme coupled assay

As a guide, the following entries are already answered.
COc1ccc(-c2c(-c3cc(Cl)c(O)cc3O)n[nH]c2C)cc1: 12.3 to 14 µM
CCNC(=O)c1noc(-c2cc(C(C)C)c(O)cc2O)c1-c1ccc(CN2CCOCC2)cc1: 7.3 to 28 µM
CCc1cc(-c2n[nH]c(C)c2-c2ccc3c(c2)OCCO3)c(O)cc1O: 28 to 30 µM
Cc1[nH]nc(-c2cc(Cl)c(O)cc2O)c1-c1ccc2c(c1)OCCO2: 11.2 to 28 µM

Bench note: what IC50 did Oc1cc(O)c(-c2n[nH]cc2-c2ccc3c(c2)OCCO3)cc1Cl show?
32.3 to 44 µM

====

assayNotes: Hemolytic activity against sheep RBC at 0.5 mM after 30 mins relative to control
Format: ADME, cell-based, Ovis aries, Erythrocyte
measurementSetup: sheep red blood cells (erythrocytes), read-out: Activity
Known hemolysis at 0.5 h, 500 µM of a selection of compounds
Answer format: numeric, % implied, no suffix.

Worked set:
Oc1cc(O)c(-c2n[nH]cc2-c2ccc3c(c2)OCCO3)cc1Cl: 1
CC(C)NCCCn1c(Sc2cc3c(cc2I)OCO3)nc2c(N)ncnc21 [PU-H71]: 1

Consider now this further compound.
// returns reported hemolysis at 0.5 h, 500 µM for input CCNC(=O)c1noc(-c2cc(C(C)C)c(O)cc2O)c1-c1ccc(CN2CCOCC2)cc1 [LUMINESPIB]
1
